Biological target: Recombinant human HSD17B13 enzyme (Homo sapiens, UniProt Q7Z5P4)
Assay: HSD17b13 NAD(P)H-Glo biochemical assay
Conditions: 50 uM estradiol, 1 mM NAD+, NAD(P)H-Glo luminescence; read-out: HSD17β13 IC50
Protocol: Example B-1: HSD17b13 NAD(P)H-Glo Biochemical Assay Recombinant human HSD17B13 enzyme. Substrate: estradiol (Sigma β-Estradiol E8875), 100 mM in DMSO. Cofactor: NAD+ Grade I free acid (Sigma 10127965001), 20 mM in H2O. […] Enzymatic activity detected by NAD(P)H-Glo™ Detection System (Promega G9062). […] HSD17b13 enzyme was diluted in 1× assay buffer to the desired enzyme concentration based on the specific activity of the enzyme lot. […] After incubating for 1 hour at RT, luminescence was measured.
pIC50: −log10 of the molar value.

molecule: Cn1nc(-c2cc(C(F)(F)F)c(F)c(O)c2F)c2cc(F)c(N3CCN(S(C)(=O)=O)CC34CC4)nc21
system_under_test: Recombinant human HSD17B13 enzyme (Homo sapiens, UniProt Q7Z5P4)
pIC50: > 7.00
--
molecule: Cn1nc(-c2cc(C(F)(F)F)c(F)c(O)c2F)c2cnc(N3CCN(S(C)(=O)=O)CC34CC4)nc21
system_under_test: Recombinant human HSD17B13 enzyme (Homo sapiens, UniProt Q7Z5P4)
pIC50: > 7.00
--
molecule: CN(c1cc(Cl)c2c(-c3cc(C(F)(F)F)c(F)c(O)c3F)nn(C)c2c1)C1CCOCC1
system_under_test: Recombinant human HSD17B13 enzyme (Homo sapiens, UniProt Q7Z5P4)
pIC50: 6.00 to 7.00
--
molecule: Cn1nc(-c2cc(C(F)(F)F)c(F)c(O)c2F)c2ccc(N3CCOCC34CCC4)nc21
system_under_test: Recombinant human HSD17B13 enzyme (Homo sapiens, UniProt Q7Z5P4)
pIC50: > 7.00
--
molecule: Cn1nc(-c2cc(C(F)(F)F)c(F)c(O)c2F)c2cnc(NC3CCC3)nc21
system_under_test: Recombinant human HSD17B13 enzyme (Homo sapiens, UniProt Q7Z5P4)
pIC50: > 7.00
--
molecule: Cn1nc(-c2cc(C(F)(F)F)c(F)c(O)c2F)c2ncc(N3CCN(S(C)(=O)=O)CC3)nc21
system_under_test: Recombinant human HSD17B13 enzyme (Homo sapiens, UniProt Q7Z5P4)
pIC50: 6.00 to 7.00
--
molecule: CN(C)C(=O)C1CN(c2cc3c(cn2)c(-c2cc(C(F)(F)F)c(F)c(O)c2F)nn3C)CCO1 (stereo not shown)
system_under_test: Recombinant human HSD17B13 enzyme (Homo sapiens, UniProt Q7Z5P4)
pIC50: 6.00 to 7.00

----------
biological target: Recombinant human HSD17B13 enzyme (Homo sapiens, UniProt Q7Z5P4); assay: HSD17b13 NAD(P)H-Glo biochemical assay; settings: at 30 uM compound; read-out: HSD17β13 % inhibition at 30 uM

test_smiles: CS(=O)(=O)N1CCN(c2ccc3c(-c4ccc(F)c(O)c4F)n[nH]c3c2)CC1
comparison_sign: =
inhibition at 30 µM (%): 41
--
test_smiles: O=C(NC12CC(C1)C2)c1ccc2oc(-c3c(F)cc(F)c(O)c3F)nc2c1
comparison_sign: <
inhibition at 30 µM (%): 20
--
test_smiles: Cc1cc(-c2nc3cc(C(=O)NC4CCC4)ccc3o2)cc(O)c1F
comparison_sign: =
inhibition at 30 µM (%): 20
--
test_smiles: O=C(NC1CCC1)c1ccc2oc(-c3cc(O)cc(C(F)(F)F)c3F)nc2c1
comparison_sign: =
inhibition at 30 µM (%): 20

----------
Measured IC50 by item
target: Recombinant human HSD17B13 enzyme (Homo sapiens); assay: HSD17b13 NAD(P)H-Glo biochemical assay; details: 50 uM estradiol, 1 mM NAD+, NAD(P)H-Glo luminescence; read-out: HSD17β13 IC50
endpoint_name: IC50

molecule: Cn1nc(-c2cc(C(F)(F)F)c(F)c(O)c2F)c2cnc(N3CCN(C(=O)C4CCCCC4)CC3)nc21
system_under_test: Recombinant human HSD17B13 enzyme (Homo sapiens)
result: < 100 nM
//
molecule: Cn1nc(-c2cc(C(F)(F)F)c(F)c(O)c2F)c2cnc(N3CCC4(CCCO4)CC3)nc21
system_under_test: Recombinant human HSD17B13 enzyme (Homo sapiens)
result: < 100 nM
//
molecule: Cn1nc(-c2cc(C(F)(F)F)c(F)c(O)c2F)c2cnc(N3CCN(C(=O)c4ccncc4)CC3)nc21
system_under_test: Recombinant human HSD17B13 enzyme (Homo sapiens)
result: 100 to 1000 nM
//
molecule: Cc1cc(N(C)C2CCOCC2)cc2c1c(-c1cc(C(F)(F)F)c(F)c(O)c1F)nn2C
system_under_test: Recombinant human HSD17B13 enzyme (Homo sapiens)
result: 100 to 1000 nM
//
molecule: Cn1nc(-c2cc(C(F)(F)F)c(F)c(O)c2F)c2cnc(N3CCC(O)(c4cccnc4)CC3)nc21
system_under_test: Recombinant human HSD17B13 enzyme (Homo sapiens)
result: < 100 nM
//
molecule: CN(C)CC1CN(c2ncc3c(-c4cc(C(F)(F)F)c(F)c(O)c4F)nn(C)c3n2)CCO1 (stereo not shown)
system_under_test: Recombinant human HSD17B13 enzyme (Homo sapiens)
result: 100 to 1000 nM
//
molecule: CN(c1cc2c(nn1)c(-c1cc(C(F)(F)F)c(F)c(O)c1F)nn2C)C1CCOCC1
system_under_test: Recombinant human HSD17B13 enzyme (Homo sapiens)
result: 100 to 1000 nM

----------
Target: Recombinant human HSD17B13 enzyme (Homo sapiens, UniProt Q7Z5P4)
Sequence (Q7Z5P4 20-300): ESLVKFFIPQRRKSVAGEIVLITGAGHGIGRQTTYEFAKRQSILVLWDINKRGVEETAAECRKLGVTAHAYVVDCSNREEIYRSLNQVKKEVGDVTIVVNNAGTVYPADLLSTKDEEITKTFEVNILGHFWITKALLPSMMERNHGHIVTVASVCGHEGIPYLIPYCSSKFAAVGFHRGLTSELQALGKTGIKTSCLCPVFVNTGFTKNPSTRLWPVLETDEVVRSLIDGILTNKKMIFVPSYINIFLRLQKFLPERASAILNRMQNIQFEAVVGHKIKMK
Experiment: HSD17b13 NAD(P)H-Glo biochemical assay
Settings: 50 uM estradiol, 1 mM NAD+, NAD(P)H-Glo luminescence; read-out: HSD17β13 IC50
Known IC50 of a selection of compounds
endpoint_name: IC50

compound: Cn1nc(-c2cc(C(F)(F)F)c(F)c(O)c2F)c2cnc(N3CCN(S(C)(=O)=O)C(C#N)C3)nc21 (stereo not drawn)
result: < 100 nM
--
compound: Cn1nc(-c2cc(C(F)(F)F)c(F)c(O)c2F)c2cnc(N3CCN(S(C)(=O)=O)C4(COC4)C3)nc21
result: < 100 nM
--
compound: Oc1cccc(-c2ccc3oc(-c4ccc(F)c(O)c4)nc3c2)c1
result: 1000 to 30000 nM
--
compound: CN(c1cc2[nH]nc(-c3cc(C(F)(F)F)c(F)c(O)c3F)c2cn1)C1CCOCC1
result: < 100 nM
--
compound: CS(=O)(=O)N1CCC(c2cc3[nH]nc(-c4cc(C(F)(F)F)cc(O)c4F)c3cn2)CC1
result: 100 to 1000 nM
--
compound: Cn1nc(-c2cc(C(F)(F)F)c(F)c(O)c2F)c2cnc(N3CCCCC34CCC4)cc21
result: < 100 nM
--
compound: Cn1nc(-c2cc(C(F)(F)F)c(F)c(O)c2F)c2cnc(N3CCOC(c4ccncc4)C3)nc21 (stereo not drawn)
result: < 100 nM
--
compound: CS(=O)(=O)N1CCN(c2cc3[nH]nc(-c4cc(O)c(F)c(C(F)(F)F)c4)c3cc2F)CC1
result: 100 to 1000 nM
--
compound: Cn1nc(-c2cc(C(F)(F)F)c(F)c(O)c2F)c2cnc(N3CCO[C@H](c4ccccc4)C3)nc21
result: < 100 nM
--
compound: CC(=O)N1CCN(c2ncc3c(-c4cc(C(F)(F)F)c(F)c(O)c4F)nn(C)c3n2)C2(CC2)C1
result: < 100 nM
--
compound: Cn1nc(-c2cc(C(F)(F)F)c(F)c(O)c2F)c2c(F)cc(N3CCOCC34CC4)cc21
result: < 100 nM
--
compound: Cn1nc(-c2cc(C(F)(F)F)c(F)c(O)c2F)c2cnc(N(Cc3ccccc3)C3CC3)nc21
result: < 100 nM
--
compound: CC1COC2(CCC2)CN1c1cc2c(cn1)c(-c1cc(C(F)(F)F)c(F)c(O)c1F)nn2C (stereo not drawn)
result: < 100 nM
--
compound: Cn1nc(-c2cc(C(F)(F)F)c(F)c(O)c2F)c2cnc(N3CCOC(C(N)=O)C3)nc21 (stereo not drawn)
result: < 100 nM
--
compound: CN(c1ncc2c(-c3cc(C(F)(F)F)c(F)c(O)c3F)nn(C)c2n1)C1CCNCC1
result: 100 to 1000 nM
